Cited source: ChEMBL document CHEMBL4145442

Target: Tyrosine-protein kinase Lck (Homo sapiens, UniProt P06239)
Sequence (P06239 2-509 limits assumed): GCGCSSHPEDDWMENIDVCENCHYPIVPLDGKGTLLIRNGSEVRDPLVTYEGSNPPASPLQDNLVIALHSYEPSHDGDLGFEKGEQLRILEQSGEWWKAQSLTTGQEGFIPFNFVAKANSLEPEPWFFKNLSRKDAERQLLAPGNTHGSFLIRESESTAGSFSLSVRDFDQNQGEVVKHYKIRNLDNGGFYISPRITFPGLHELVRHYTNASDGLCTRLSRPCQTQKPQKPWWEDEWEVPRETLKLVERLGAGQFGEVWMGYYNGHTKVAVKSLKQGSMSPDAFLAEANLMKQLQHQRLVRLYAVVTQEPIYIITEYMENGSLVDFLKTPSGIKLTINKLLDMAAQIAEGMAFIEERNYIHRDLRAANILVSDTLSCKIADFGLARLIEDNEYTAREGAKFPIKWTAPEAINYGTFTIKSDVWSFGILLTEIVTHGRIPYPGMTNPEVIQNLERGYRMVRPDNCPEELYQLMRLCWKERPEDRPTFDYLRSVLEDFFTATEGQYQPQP
Test: Inhibition of LCK (unknown origin) assessed as remaining activity at 3 x 10^-5 M after 120 mins in presence of 33P-ATP (reference value: […]% to […]%)
Details: at 30 µM
REPORTED_ENDPOINT: Activity

Request: Item COc1ccc(NC(=O)Nc2cnc(Nc3cc(OC)cc(OC)c3)nc2Oc2ccc(C)cc2OC)cc1 with Tyrosine-protein kinase Lck (Homo sapiens, UniProt P06239) - Activity?
Response: 90.7 to 95.4%

Request: Next: COc1cc(NC(=O)Nc2cnc(Nc3cc(OC)cc(OC)c3)nc2Oc2ccc(C)cc2OC)cc(OC)c1
Response: 60.4 to 61.1%

Request: Next: COc1cc(C)ccc1Oc1nc(Nc2ccc(N3CCOCC3)cc2)ncc1/N=C/c1ccc(Cl)cc1
Response: 16.8%

Request: Next: COc1ccc(OC)c(/C=N/c2cnc(Nc3ccc(N4CCOCC4)cc3)nc2Oc2ccc(C)cc2OC)c1
Response: 8.37 to 10.1%

Request: Next: COc1cc(Nc2ncc(NC(=O)c3cc(OC)cc(OC)c3)c(Oc3ccc(C)cc3OC)n2)cc(OC)c1
Response: 92.3 to 96.8%

Request: Next: COc1cc(C)ccc1Oc1nc(Nc2ccc(N3CCOCC3)cc2)ncc1NC(=O)Nc1cc(Cl)cc(Cl)c1
Response: 65.4 to 70%

====

Answer each item with its documented IC80 at 4 h.
Assay: Cytotoxicity against mouse RAW264.7 cells after 4 hrs by MTT assay
Format: cell-based
Details: mouse, RAW264.7 cells

Request: Value lookup for IC80 at 4 h; key = COc1cc(C)ccc1Oc1nc(Nc2ccc(N3CCOCC3)cc2)ncc1/N=C/c1cc(Cl)cc(Cl)c1
Response: 987 nM

Request: Next: COc1ccc(Oc2nc(Nc3ccc(N4CCOCC4)cc3)ncc2/N=C/c2cc(OC)cc(OC)c2)cc1
Response: > 12000 nM

Request: Next: COc1cc(/C=N/c2cnc(Nc3ccc(N4CCOCC4)cc3)nc2Oc2ccc(C)cc2OC)cc(OC)c1
Response: > 1000 nM

====

Target: Tyrosine-protein kinase Lck (Homo sapiens)
Assay: Inhibition of LCK (unknown origin) assessed as remaining activity at 3.33 x 10^-6 M after 120 mins in presence of 33P-ATP (reference value: […]% to […]%)
Conditions: at 3.33 µM
Answer each item with its documented Activity.

Request: Item COc1cc(C)ccc1Oc1nc(Nc2ccc(N3CCOCC3)cc2)ncc1/N=C/c1cc(C(F)(F)F)cc(C(F)(F)F)c1 with Tyrosine-protein kinase Lck (Homo sapiens) - Activity?
Response: 24.7 to 27.4%

Request: Next: COc1cc(C)ccc1Oc1nc(Nc2ccc(N3CCOCC3)cc2)ncc1NC(=O)Nc1c(Cl)cccc1Cl
Response: 75.6 to 81.8%

Request: Next: COc1cc(C)ccc1Oc1nc(Nc2ccc(N3CCOCC3)cc2)ncc1NCc1cccc(OC(F)(F)F)c1
Response: 68.8 to 76.6%

Request: Next: COc1cc(C)ccc1Oc1nc(Nc2ccc(N3CCOCC3)cc2)ncc1/N=C/c1cccc(OC(F)(F)F)c1
Response: 41.1 to 43.7%

Request: Next: COc1cc(C)ccc1Oc1nc(Nc2ccc(N3CCOCC3)cc2)ncc1/N=C/c1cccc(OC(C)C)c1
Response: 20 to 24.3%

Request: Next: COc1ccccc1NC(=O)Nc1cnc(Nc2ccc(N3CCOCC3)cc2)nc1Oc1ccc(C)cc1OC
Response: 54.2 to 56%

Request: Next: COc1cc(/C=N/c2cnc(Nc3ccc(N4CCOCC4)cc3)nc2Oc2ccc(C(F)(F)F)cc2)cc(OC)c1
Response: 58.4 to 60%

Request: Next: COc1cc(NC(=O)Nc2cnc(Nc3cc(OC)cc(OC)c3)nc2Oc2ccc(C)cc2OC)cc(OC)c1
Response: 90.1 to 95.8%

Request: Next: COc1cc(/C=N/c2cnc(Nc3ccc(N4CCOCC4)cc3)nc2Oc2ccc(F)cc2)cc(OC)c1
Response: 42.7 to 47.8%

Request: Next: COc1cc(OC)cc(C(=O)Nc2cnc(Nc3ccc(N4CCOCC4)cc3)nc2Oc2ccc(C)cc2OC)c1
Response: 67.3 to 72.8%
